system.under.test: human muscarinic M4 receptor (Homo sapiens, UniProt P08173)
Construct: expressed in transfected cells
Sequence (P08173 whole entry): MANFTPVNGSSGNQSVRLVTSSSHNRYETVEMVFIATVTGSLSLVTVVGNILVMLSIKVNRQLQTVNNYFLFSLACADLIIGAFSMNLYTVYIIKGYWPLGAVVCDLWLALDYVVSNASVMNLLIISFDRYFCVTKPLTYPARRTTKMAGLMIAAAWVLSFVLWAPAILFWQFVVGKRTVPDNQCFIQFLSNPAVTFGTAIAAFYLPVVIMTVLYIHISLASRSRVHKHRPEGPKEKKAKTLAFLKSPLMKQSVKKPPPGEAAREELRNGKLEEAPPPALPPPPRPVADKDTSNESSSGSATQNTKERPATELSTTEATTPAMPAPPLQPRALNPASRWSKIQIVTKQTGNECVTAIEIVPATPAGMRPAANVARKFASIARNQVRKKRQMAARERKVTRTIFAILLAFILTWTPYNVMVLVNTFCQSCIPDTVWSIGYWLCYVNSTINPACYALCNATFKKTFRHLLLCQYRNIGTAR
measurement.description: Alphascreen Surefire phospho-ERK1/2 functional assay, M4
Format: cell-based
condition.set: CHO cells stably expressing human M4; phospho-ERK1/2; read-out: pEC50 M4 (converted)
Threshold check on EC50: strictly below 100 nM is t; on or above 100 nM is f.

Example entries begin here.
compound | system.under.test | assigned.label
CCOC(=O)N1CCCN(C2CCC(C#N)(c3ccc(Cl)cn3)CC2)CC1 (mixture of isomers) [3-16 mixture of isomers] | human muscarinic M4 receptor (Homo sapiens, UniProt P08173) | f
CCOC(=O)N[C@H]1CCN(C2CCC3(CC2)C(=O)N(C(=O)OCC)c2ccccc23)C1 (single isomer, unassigned) [2-14 isomer 2] | human muscarinic M4 receptor (Homo sapiens, UniProt P08173) | f
COc1ccc2c(c1)C1(CCC(N3CCC[C@@H](c4nc(C)no4)C3)CC1)C(=O)N2 (single isomer, unassigned) [22-2 Isomer 1] | human muscarinic M4 receptor (Homo sapiens, UniProt P08173) | f
CCc1noc(C2CC3(C2)CN(C2CCC4(CC2)C(=O)Nc2ccccc24)C3)n1 (single isomer, unassigned) [25-1 Isomer 1] | human muscarinic M4 receptor (Homo sapiens, UniProt P08173) | f

query: Lab log: compare recorded EC50 with 100 nM; is it strictly lower for CCOC(=O)N(C)[C@@H]1CCN(C2CCC3(CC2)C(=O)Nc2ncccc23)C1 (single isomer, unassigned) [2-18 isomer 1] ?
result: f

query: Lab log: compare recorded EC50 with 100 nM; is it strictly lower for CCOC(=O)N1CCCN(C2CCC3(CC2)C(=O)Nc2cc(C)ccc23)CC1 (single isomer, unassigned) [4-6 isomer 2] ?
result: t

====

system.under.test: human muscarinic M4 receptor (Homo sapiens, UniProt P08173)
Construct: expressed in transfected cells
measurement.description: Alphascreen Surefire phospho-ERK1/2 functional assay, M4
Format: cell-based
condition.set: CHO cells stably expressing human M4; phospho-ERK1/2; read-out: pEC50 M4 (converted)
The reader will find reported EC50 values listed item by item below.

Record excerpt, results attached:
compound | system.under.test | assay.value
CCOC(=O)N[C@H]1CCN(C2CCC(C#N)(c3cccc(Cl)c3)CC2)C1 (single isomer, unassigned) [1-10 Isomer 2] | human muscarinic M4 receptor (Homo sapiens, UniProt P08173) | > 20000 nM
CCOC(=O)N[C@@H]1CCN(C2CCC(C#N)(c3ccccc3)CC2)C1 (single isomer, unassigned) [1-2 Isomer 2] | human muscarinic M4 receptor (Homo sapiens, UniProt P08173) | 741 nM
CCOC(=O)N[C@H]1CCN(C2CCC3(CC2)C(=O)Nc2ccc(OC)cc23)C1 (single isomer, unassigned) [2-10 isomer 1] | human muscarinic M4 receptor (Homo sapiens, UniProt P08173) | > 20000 nM
CCOC(=O)N1CCCN(C2CCC3(CC2)CN(S(C)(=O)=O)c2ncccc23)CC1 (single isomer, unassigned) [4-19 isomer 1] | human muscarinic M4 receptor (Homo sapiens, UniProt P08173) | 324 nM
CCOC(=O)N1CCCN(C2CCC(C#N)(c3ccncc3)CC2)CC1 (mixture of isomers) [3-12 mixture of isomers] | human muscarinic M4 receptor (Homo sapiens, UniProt P08173) | 1070 nM

Next compound, please.
query: Please give the measured EC50 for this compound: Cc1noc([C@H]2CC[C@@H](NC3CCC(C#N)(c4ccccn4)CC3)C2)n1 (single isomer, unassigned) [19-1 Isomer 2]
result: 224 nM
